studyTarget: androgen receptor LBD (Panvera) (Rattus norvegicus, UniProt P15207)
Construct: 5 pmol androgen receptor LBD (Panvera); purchased Panvera
Sequence (P15207 651-882 limits assumed): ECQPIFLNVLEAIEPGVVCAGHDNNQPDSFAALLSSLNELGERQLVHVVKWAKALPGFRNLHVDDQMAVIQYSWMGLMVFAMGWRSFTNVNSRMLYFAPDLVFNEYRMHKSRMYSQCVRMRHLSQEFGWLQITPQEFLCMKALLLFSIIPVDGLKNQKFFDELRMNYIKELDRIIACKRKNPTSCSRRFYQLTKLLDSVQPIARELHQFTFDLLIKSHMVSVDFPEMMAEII
procedureSummary: Androgen Receptor Filtration Binding Assay (PANVERA)
cond: [3H] R1881 tracer 0.5 nM; read-out: IC50 (nM), Androgen Receptor Binding (Panvera)
observedProperty: IC50 (nM)
Express the result in nM but write the number alone.

> print(dat)
                                   compound  reported
1  CC(O)(COC(=O)c1ccc(F)cc1)c1cc2cc(C#N)c(C(F)(F)F)cc2[nH]1 (stereo not shown)      1110
2  CC(O)(CSC1CCCCC1)c1cc2nc(C(F)(F)F)ccc2[nH]1 (racemic)     14000
3  CC(O)(Sc1ccc(Cl)cc1)c1cc2cc(C#N)c(C(F)(F)F)cc2[nH]1 (racemic)      1460
4  CC(O)(Sc1ccccc1)c1cc2cc([N+](=O)[O-])c(C(F)(F)F)cc2[nH]1 (racemic)      2450
5  CC(O)(C[S+]([O-])c1ccc(F)cc1)c1cc2cc(Cl)c(C(F)(F)F)cc2[nH]1 (stereo not shown) [Compound 113]      5100
6  COc1ccc(C(=O)OCC(C)(O)c2cc3cc([N+](=O)[O-])c(C(F)(F)F)cc3[nH]2)cc1 (stereo not shown)       945
7  CC(O)(CSc1ccc(Cl)c(Cl)c1)c1cc2cc([N+](=O)[O-])c(C(F)(F)F)cc2n1S(C)(=O)=O (stereo not shown)      1280
8  CC(O)(CCl)c1cc2nc(C(F)(F)F)ccc2n1S(C)(=O)=O (stereo not shown)      7600

Incoming: So what's the measured IC50 for this one? CC(O)(CSc1ccc(Cl)cc1)c1cc2cc(Cl)ccc2[nH]1 (stereo not shown)
Outgoing: 665

Incoming: So what's the measured IC50 for this one? CC(O)(CSc1ccccc1)c1cc2cc(Cl)c(C(F)(F)F)cc2[nH]1 (stereo not shown)
Outgoing: 225

Incoming: So what's the measured IC50 for this one? CS(=O)(=O)n1c(C2(O)CCNCC2)cc2cc(Cl)c(C(F)(F)F)cc21
Outgoing: 54000

Incoming: So what's the measured IC50 for this one? CC(O)(Sc1ccc(Cl)cc1)c1cc2cc([N+](=O)[O-])c(C(F)(F)F)cc2[nH]1 (racemic)
Outgoing: 915

Incoming: So what's the measured IC50 for this one? CC(O)(CSc1ccc([N+](=O)[O-])cc1)c1cc2cc([N+](=O)[O-])c(C(F)(F)F)cc2[nH]1 (stereo not shown)
Outgoing: 1650

---

Quick list: inhibition at 3 µM per entry.
studyTarget: androgen receptor (AdEasy+rAR, COS-7 cells) (Rattus norvegicus, UniProt P15207)
Construct: expressed in transfected cells; host or cells: COS-7 cells transduced with adenovirus AdEasy+rAR
procedureSummary: COS-7 Whole-Cell Androgen Receptor Binding Assay, Adenovirus Transduction
cond: concentration of 3000 nM
Express the result in % but write the number alone.

A selection of reference data follows.
> print(dat)
                                   compound  measurementunits  reported
1  CCC(O)(CS(=O)(=O)CC)c1cc2cc([N+](=O)[O-])c(C(F)(F)F)cc2[nH]1 (stereo not shown)                 %        75
2  CCSCC(C)(O)c1cc2cc(Cl)c(C(F)(F)F)cc2[nH]1 (stereo not shown)                 %        39
3  CCC(O)(CSCC(F)(F)F)c1cc2cc(Cl)c(C(F)(F)F)cc2[nH]1 (stereo not shown)                 %        86

Here is another compound to look at.
Incoming: What value of inhibition at 3 µM on androgen receptor (AdEasy+rAR, COS-7 cells) (Rattus norvegicus, UniProt P15207) does CCS(=O)(=O)C[C@](C)(O)c1cc2cc([N+](=O)[O-])c(C(F)(F)F)cc2[nH]1 have?
Outgoing: 42
